All figures here come from PubChem BioAssay AID1238.

- System: beta-lactamase reporter cell line, FRET read-out, counterscreen
- TEST PROTOCOL: nonspecific beta-lactamase reporter inhibition – cell-based, FRET readout, counter-screen for GALR2 antagonist project, dose response (AID 1238)
The source made the active and inactive calls. No rule for the calls is given here.
REPORTED METRIC: IC50

Provide the reported IC50 (system: beta-lactamase reporter cell line, FRET read-out, counterscreen) for Cn1nc(C(C)(C)C)cc1C(=O)NCc1ccc(N2CCCC2=O)cc1
> 42 µM (inactive)

Provide the reported IC50 (system: beta-lactamase reporter cell line, FRET read-out, counterscreen) for CC(=O)SC(C[N+](=O)[O-])c1cn(C(C)=O)c2ccccc12 (stereo unspecified)
17.1 µM (inactive)

Provide the reported IC50 (system: beta-lactamase reporter cell line, FRET read-out, counterscreen) for CCOC(=O)c1ccc(N2C(=O)CC(N3CCC(O)(c4ccc(Br)cc4)CC3)C2=O)cc1 (stereo unspecified)
> 42 µM (inactive)

Provide the reported IC50 (system: beta-lactamase reporter cell line, FRET read-out, counterscreen) for O=C(Cc1cccs1)Nc1cccc(-c2nc3cc4ccccc4cc3[nH]2)c1
> 42 µM (inactive)

Provide the reported IC50 (system: beta-lactamase reporter cell line, FRET read-out, counterscreen) for Cc1ccc(S(=O)(=O)NCc2ccncc2)cc1
> 42 µM (inactive)

Provide the reported IC50 (system: beta-lactamase reporter cell line, FRET read-out, counterscreen) for c1ccc2c(c1)[nH]c1c(NCC3CCCO3)ncnc12 (stereo unspecified)
> 42 µM (inactive)

Provide the reported IC50 (system: beta-lactamase reporter cell line, FRET read-out, counterscreen) for CCCOc1ncnc2c1[nH]c1ccccc12
> 42 µM (inactive)

Provide the reported IC50 (system: beta-lactamase reporter cell line, FRET read-out, counterscreen) for CC(=O)Nc1ccccc1OCC(=O)c1cc(C)n(Cc2cccs2)c1C
> 42 µM (inactive)

Provide the reported IC50 (system: beta-lactamase reporter cell line, FRET read-out, counterscreen) for CCOc1ccc(S(=O)(=O)NCc2ccncc2)cc1
> 42 µM (inactive)

Provide the reported IC50 (system: beta-lactamase reporter cell line, FRET read-out, counterscreen) for O=C(/C=C/Sc1ncn[nH]1)c1ccc(Cl)cc1
17 µM (inactive)

Provide the reported IC50 (system: beta-lactamase reporter cell line, FRET read-out, counterscreen) for CCn1c2ccc(C)cc2c2nc3cc(C(=O)O)ccc3nc21
> 42 µM (inactive)

###

- System: beta-lactamase reporter cell line, FRET read-out, counterscreen
- TEST PROTOCOL: nonspecific beta-lactamase reporter inhibition – cell-based, FRET readout, counter-screen for GALR2 antagonist project, dose response (AID 1238)
The source made the active and inactive calls. How the calls were made is not given here.
REPORTED METRIC: IC50

Please list IC50 recorded for the molecule CC(=O)c1c(C)[nH]c(C(=O)OCCCCN2C(=O)c3ccccc3C2=O)c1C
> 42 µM (inactive)

Please list IC50 recorded for the molecule COc1ccc(CCNc2c(C)c(C)nc3ncnn23)cc1
> 42 µM (inactive)

Please list IC50 recorded for the molecule CC(=O)c1c(C)[nH]c(C(=O)OCC(=O)Nc2ccc(Cl)cc2[N+](=O)[O-])c1C
> 42 µM (inactive)

Please list IC50 recorded for the molecule O=C(/C=C/c1ccc(Cl)cc1)NC(=S)Nc1ccc(NC(=O)c2ccco2)cc1
> 14 µM (inactive)

Please list IC50 recorded for the molecule COc1cc(/C=C/[N+](=O)[O-])ccc1O
11.1 µM (inactive)

Please list IC50 recorded for the molecule Cc1cc(C(=O)CSc2nc3ccccc3[nH]2)c(C)n1CC1CCCO1 (centres undefined)
> 42 µM (inactive)

Please list IC50 recorded for the molecule CNc1nc2cc([N+](=O)[O-])c([N+](=O)[O-])cc2nc1NC
> 42 µM (inactive)

Please list IC50 recorded for the molecule C1=C(CCNc2ncnc3c2[nH]c2ccccc23)CCCC1
> 42 µM (inactive)

Please list IC50 recorded for the molecule Cc1nc2ccc(NC(=O)c3cc(S(=O)(=O)N(C)c4ccccc4)ccc3Cl)cc2s1
> 42 µM (inactive)

###

- Test system: beta-lactamase reporter cell line, FRET read-out, counterscreen
- TEST PROTOCOL: nonspecific beta-lactamase reporter inhibition – cell-based, FRET readout, counter-screen for GALR2 antagonist project, dose response (AID 1238)
Calls of active or inactive are those of the source. How the calls were made is not given here.
REPORTED METRIC: IC50

Please list IC50 recorded for the compound COC(=O)c1ccc(COC(=O)c2[nH]c(C)c(C(C)=O)c2C)o1
> 42 µM (inactive)

Please list IC50 recorded for the compound CN(C(=S)NC1CCCCC1)C1(c2ccccc2Cl)CCCCC1=O (stereo not drawn)
> 42 µM (inactive)

Please list IC50 recorded for the compound Cc1sc2ncnc(NCCc3ccc(S(N)(=O)=O)cc3)c2c1C
> 42 µM (inactive)

Please list IC50 recorded for the compound O=[N+]([O-])c1cc(-c2ncccn2)c([N+](=O)[O-])s1
9.61 µM

Please list IC50 recorded for the compound CN(C)c1ccc(NC2=C(Cl)C(=O)c3ccccc3C2=O)cc1
> 14 µM (inactive)

Please list IC50 recorded for the compound Cc1cc(Nc2cccc(Cl)c2)nc(NCc2ccccc2)n1
> 14 µM (inactive)

Please list IC50 recorded for the compound Cc1nnc(SCC(=O)Nc2cccc(S(=O)(=O)N(C)c3ccccc3)c2)s1
> 42 µM (inactive)

Please list IC50 recorded for the compound Cc1ccc2[nH]c3c(N4CCc5ccccc5C4)ncnc3c2c1
> 42 µM (inactive)

Please list IC50 recorded for the compound c1ccc2c(c1)OCC(CNc1ncnc3sccc13)O2 (stereo not drawn)
> 42 µM (inactive)

Please list IC50 recorded for the compound c1cnc2c(c1)ccc1cccnc12
> 42 µM (inactive)

Please list IC50 recorded for the compound O=S(=O)(NCc1ccncc1)c1ccc(Br)s1
> 42 µM (inactive)

Please list IC50 recorded for the compound CCCCOc1ncnc2c1[nH]c1ccc(F)cc12
> 42 µM (inactive)

Please list IC50 recorded for the compound CCOC(=O)c1cc([N+](=O)[O-])c([N+](=O)[O-])cc1NC(C)=O
7.53 µM

Please list IC50 recorded for the compound Cc1cccc(C(=O)Nc2ccc(C(=O)/C=C/c3cccnc3)cc2)c1
17.9 µM (inactive)

Please list IC50 recorded for the compound Cc1cc(C)c(S(=O)(=O)NCc2ccncc2)c(C)c1
> 42 µM (inactive)

Please list IC50 recorded for the compound CC1CCC/C=C/C2CC(O)CC2C(O)/C=C/C(=O)O1 (stereo not drawn)
> 42 µM (inactive)

Please list IC50 recorded for the compound O=C(Nc1ccc2nc(-c3cccnc3)[nH]c2c1)C12CC3CC(CC(C3)C1)C2
> 42 µM (inactive)

Please list IC50 recorded for the compound CCc1ccccc1NC(=O)CN(C)C(=O)Cn1ncc(Cl)c(Cl)c1=O
17.1 µM (inactive)

Please list IC50 recorded for the compound N#C/C(=C\c1cccs1)c1nc2ccccc2[nH]1
> 42 µM (inactive)

Please list IC50 recorded for the compound O=C(Cn1ncc(Cl)c(Cl)c1=O)N1CCN(S(=O)(=O)c2ccc3ccccc3c2)CC1
> 14 µM (inactive)

Please list IC50 recorded for the compound Cc1ccc(S(=O)(=O)CC2CSc3nc4ccccc4n32)cc1 (stereo not drawn)
> 42 µM (inactive)

Please list IC50 recorded for the compound CCOC(=O)N1CCN(c2ncnc3c2[nH]c2ccc(F)cc23)CC1
> 42 µM (inactive)

Please list IC50 recorded for the compound CCOC(=O)COc1ccc(S(=O)(=O)NCc2ccncc2)cc1
> 42 µM (inactive)
